Kindly state pIC50 for each of the entries shown.
Assayed Target: RyR1 R2163C (Oryctolagus cuniculus, UniProt P11716, R2163C)
Assay Text: Time-lapse [Ca2+]ER measurement, HEK293 cells expressing RyR1 R2163C
Measurement Setup: HEK293 cells stably expressing RyR1 R2163C; ER Ca2+ fluorescence; dose-dependent
Numbers only, as −log10 of the molar value.

O=C(C[C@@H](NCCCO)C(=O)O)Nc1ccc2ccccc2c1 [RI-2]: 4.55

Then this compound:
Query pIC50 on RyR1 R2163C (Oryctolagus cuniculus, UniProt P11716, R2163C) for O=C1CN(/N=C/c2ncc(-c3ccc(Br)cc3)o2)C(=O)N1 [AZU, Azumolene]
6.39
